// values below are reported Percent of maximal response to individual gluten peptides, IP-10
Test system: gluten-reactive T cells
assay.notes: 96-well plate whole blood cytokine release, IP-10 by MAGPIX multiplex bead assay
Assay type: cell-based, human
setup.conditions: Subject 4; after oral gluten challenge; Max. 9463 pg/mL
Non-standard residues stand in square brackets, D forms with d. pGlu = O=C1CC[C@@H](C(=O)O)N1

Query :: Supply Percent of maximal response to individual gluten peptides, IP-10 value. Item: (pE)PEQPIPEQPQPYPQQ-amide ([pGlu]PEQPIPEQPQPYPQQ-NH2; SMILES CC[C@H](C)[C@H](NC(=O)[C@@H]1CCCN1C(=O)[C@H](CCC(N)=O)NC(=O)[C@H](CCC(=O)O)NC(=O)[C@@H]1CCCN1C(=O)[C@@H]1CCC(=O)N1)C(=O)N1CCC[C@H]1C(=O)N[C@@H](CCC(=O)O)C(=O)N[C@@H](CCC(N)=O)C(=O)N1CCC[C@H]1C(=O)N[C@@H](CCC(N)=O)C(=O)N1CCC[C@H]1C(=O)N[C@@H](Cc1ccc(O)cc1)C(=O)N1CCC[C@H]1C(=O)N[C@@H](CCC(N)=O)C(=O)N[C@@H](CCC(N)=O)C(N)=O) [Peptide 3]
Result :: ≥ 100 % of max

Query :: Supply Percent of maximal response to individual gluten peptides, IP-10 value. Item: (pE)QPFPQPELPYPYPQ-amide ([pGlu]QPFPQPELPYPYPQ-NH2; SMILES CC(C)C[C@H](NC(=O)[C@H](CCC(=O)O)NC(=O)[C@@H]1CCCN1C(=O)[C@H](CCC(N)=O)NC(=O)[C@@H]1CCCN1C(=O)[C@H](Cc1ccccc1)NC(=O)[C@@H]1CCCN1C(=O)[C@H](CCC(N)=O)NC(=O)[C@@H]1CCC(=O)N1)C(=O)N1CCC[C@H]1C(=O)N[C@@H](Cc1ccc(O)cc1)C(=O)N1CCC[C@H]1C(=O)N[C@@H](Cc1ccc(O)cc1)C(=O)N1CCC[C@H]1C(=O)N[C@@H](CCC(N)=O)C(N)=O) [Peptide 16]
Result :: 69 % of max

Query :: Supply Percent of maximal response to individual gluten peptides, IP-10 value. Item: (pE)QPFPQPEQPFSQQ-amide ([pGlu]QPFPQPEQPFSQQ-NH2; SMILES NC(=O)CC[C@H](NC(=O)[C@H](CCC(N)=O)NC(=O)[C@H](CO)NC(=O)[C@H](Cc1ccccc1)NC(=O)[C@@H]1CCCN1C(=O)[C@H](CCC(N)=O)NC(=O)[C@H](CCC(=O)O)NC(=O)[C@@H]1CCCN1C(=O)[C@H](CCC(N)=O)NC(=O)[C@@H]1CCCN1C(=O)[C@H](Cc1ccccc1)NC(=O)[C@@H]1CCCN1C(=O)[C@H](CCC(N)=O)NC(=O)[C@@H]1CCC(=O)N1)C(N)=O) [Peptide 7]
Result :: 20 % of max

Query :: Supply Percent of maximal response to individual gluten peptides, IP-10 value. Item: (pE)PEQPEQPFPEQPQQ-amide ([pGlu]PEQPEQPFPEQPQQ-NH2; SMILES NC(=O)CC[C@H](NC(=O)[C@H](CCC(N)=O)NC(=O)[C@@H]1CCCN1C(=O)[C@H](CCC(N)=O)NC(=O)[C@H](CCC(=O)O)NC(=O)[C@@H]1CCCN1C(=O)[C@H](Cc1ccccc1)NC(=O)[C@@H]1CCCN1C(=O)[C@H](CCC(N)=O)NC(=O)[C@H](CCC(=O)O)NC(=O)[C@@H]1CCCN1C(=O)[C@H](CCC(N)=O)NC(=O)[C@H](CCC(=O)O)NC(=O)[C@@H]1CCCN1C(=O)[C@@H]1CCC(=O)N1)C(N)=O) [Peptide 11]
Result :: 2 % of max

Source: patent US20170045513A1
